Data origin, for the record: ChEMBL document CHEMBL1201862

system: LOX IMVI; assay: NCI tumour cell line growth inhibition, 48 h
Calls of active or inactive are those of the source. No stated cut-off is given here; in the data, active = GI50 up to about 1.1 µM and inactive = higher.
Outcome measure: GI50

For each entry beneath this line, provide reported GI50.
1. N#CC(c1ccccc1)c1nc2ccc(N)cc2[n+]([O-])c1C(C#N)c1ccccc1 (stereo not given)
2. C=C1C(=O)O[C@H]2[C@H]1[C@H](OC(=O)/C(C)=C\C)CC(=C)[C@@H]1[C@H](O)[C@H]3O[C@@]3(C)[C@@]12O [EUPATUNDIN]
3. CC(=O)NC(CCCNCc1ccccc1)C(=O)NCc1ccccc1 (stereo not given)

["64.9 µM (inactive)", "> 100 µM (inactive)", "> 100 µM (inactive)"]

For each entry beneath this line, provide reported GI50.
1. COc1ccc(/C=c2\s/c(=C3/SC(=S)N(c4ccccc4)C3=O)n(-c3ccccc3)c2=O)cc1
2. O=C(O)CC(O)(c1ccccc1C(=O)O)c1cccc2ccccc12 (stereo not given)

["> 100 µM (inactive)", "> 100 µM (inactive)"]
